Target: T1, Len(1-22) monomer peptide (Homo sapiens (Human), UniProt P06312 21-42)
T1 construct: Analyte in SPR; on beads in the pulldown assay; also called Vκ4(LEN(1-22) beads)
T1 peptide: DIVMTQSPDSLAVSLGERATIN
Experiment: SPR, antibody as ligand, peptide as analyte
Observable: kon (M⁻¹ s⁻¹)
// units = M⁻¹ s⁻¹; emit number, no label

kon lookup needed for VH9 + VL4-N33Q (antibody, V domains shown, Humanized 11-1F4 variant) VH: QVQLQESGPGLVKPSETLSLTCTVSGFSLSSYGVSWIRQPPGKGLEWLGVIWGDGSTNYHPNLMSRVTISVDTSKSQVLFKLSSVTAADTAVYYCATLDYWGQGTSVTVSS VL: DVVMTQSPLSLPVTLGQPASISCRSSQSLVHRQGNTYLHWFQQRPGQSPRLLIYKVSNRFSGVPDRFSGSGSGTDFTLKISRVEAEDVGVYFCFQTTYVPNTFGGGTKLEIK , thanks.
13300

kon lookup needed for VH9-D54A + VL4 (antibody, V domains shown, Humanized 11-1F4 variant) VH: QVQLQESGPGLVKPSETLSLTCTVSGFSLSSYGVSWIRQPPGKGLEWLGVIWGAGSTNYHPNLMSRVTISVDTSKSQVLFKLSSVTAADTAVYYCATLDYWGQGTSVTVSS VL: DVVMTQSPLSLPVTLGQPASISCRSSQSLVHRNGNTYLHWFQQRPGQSPRLLIYKVSNRFSGVPDRFSGSGSGTDFTLKISRVEAEDVGVYFCFQTTYVPNTFGGGTKLEIK , thanks.
356

kon lookup needed for VH9-D54H + VL4 (antibody, V domains shown, Humanized 11-1F4 variant) VH: QVQLQESGPGLVKPSETLSLTCTVSGFSLSSYGVSWIRQPPGKGLEWLGVIWGHGSTNYHPNLMSRVTISVDTSKSQVLFKLSSVTAADTAVYYCATLDYWGQGTSVTVSS VL: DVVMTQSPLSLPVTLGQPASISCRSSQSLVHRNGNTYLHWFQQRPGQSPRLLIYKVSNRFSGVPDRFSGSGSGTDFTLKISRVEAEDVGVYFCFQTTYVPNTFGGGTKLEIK , thanks.
5930
